Target: Aurora-1 (Aurora B) (Homo sapiens, UniProt Q96GD4)
Sequence (Q96GD4 whole entry): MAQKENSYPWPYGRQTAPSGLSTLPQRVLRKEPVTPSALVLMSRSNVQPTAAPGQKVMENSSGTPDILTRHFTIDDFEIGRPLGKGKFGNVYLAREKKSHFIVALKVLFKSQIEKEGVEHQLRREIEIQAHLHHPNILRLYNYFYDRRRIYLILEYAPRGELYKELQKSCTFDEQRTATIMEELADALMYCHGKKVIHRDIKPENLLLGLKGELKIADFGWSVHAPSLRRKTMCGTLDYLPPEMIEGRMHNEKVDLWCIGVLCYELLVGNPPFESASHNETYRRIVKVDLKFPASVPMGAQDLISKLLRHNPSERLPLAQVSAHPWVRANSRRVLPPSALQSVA
Test: Aurora-1 (Aurora B) inhibition assay (radiometric)
Format: biochemical
Settings: read-out: Aurora B kinase Ki value
pKi: −log10 of the molar value.
Readout Label: pKi

Worked examples, 6 compounds total:
[
  {
    "Compound Smiles": "CCC(=O)Nc1ccc(Sc2nc(Nc3cc(C)n[nH]3)cc(N3CC(N4CCC4)C3)n2)cc1",
    "Value Measured": "5.70 to 7.30"
  },
  {
    "Compound Smiles": "CCC(=O)Nc1ccc(Sc2nc(Nc3cc(C4CC4)n[nH]3)cc(N3CC(N4CCOCC4)C3)n2)cc1",
    "Value Measured": "≥ 8.00"
  },
  {
    "Compound Smiles": "Cc1cc(Nc2cc(N3CCC3)nc(Sc3ccc(NC(=O)c4ccc(CN5CCC5)cc4)cc3)n2)[nH]n1",
    "Value Measured": "5.70 to 7.30"
  },
  {
    "Compound Smiles": "Cc1cc(Nc2cc(N3CCC3)nc(Sc3cccc(NC(=O)c4ccccc4Cl)c3)n2)[nH]n1",
    "Value Measured": "5.70 to 7.30"
  },
  {
    "Compound Smiles": "CCC(=O)Nc1ccc(Sc2nc(Nc3cc(C)n[nH]3)cc(N3CC(OC)(C(C)(C)C)C3)n2)cc1",
    "Value Measured": "≥ 8.00"
  },
  {
    "Compound Smiles": "Cc1cc(Nc2cc(N3CC(O)(C4CC4)C3)nc(Oc3ccc4nc(C)sc4c3)n2)[nH]n1",
    "Value Measured": "7.30 to 8.00"
  }
]

Request: Please give the measured pKi for this compound: Cc1cc(Nc2cc(N3CCC3)nc(Sc3ccc(N)cc3)n2)[nH]n1
Result: 5.70 to 7.30

Request: Follow-up item: Cc1cc(Nc2cc(N3CCC3)nc(Sc3ccc(C(=O)NCc4ccccc4)cc3)n2)n[nH]1
Result: ≥ 8.00
